FYI, the data here is from paper PMC10304372.

Measured CC50 of individual entries
protocol: in vitro
reported_conditions: dog

// worked examples, CC50 included
molecule	CC50
CCOC(=O)C1=C[C@@H](OC(CC)CC)[C@H](NC(C)=O)[C@@H](N)C1	> 100 µM
NC(=O)c1nc(F)c[nH]c1=O	> 50 µM
CCCCCCCCCCCCCCC(=O)Oc1ccc(COP(=O)(OCc2ccc(OC(=O)CCCC)cc2)OP(=O)(O)OC[C@H]2O[C@@H](n3ccnc(C(N)=O)c3=O)[C@H](O)[C@@H]2O)cc1 (some centres unmarked)	> 50 µM
CCCCCCCCCC(=O)Oc1ccc(COP(=O)(OCc2ccc(OC(=O)CCCCCCCCC)cc2)OP(=O)(O)OP(=O)(O)OC[C@H]2O[C@@H](n3ccnc(C(N)=O)c3=O)[C@H](O)[C@@H]2O)cc1	> 50 µM

Identify CC50 associated with the molecule `CCCCCCCCCC(=O)Oc1ccc(COP(=O)(OCc2ccc(OC(=O)CCCCCCCCC)cc2)OP(=O)(O)OC[C@H]2O[C@@H](n3ccnc(C(N)=O)c3=O)[C@H](O)[C@@H]2O)cc1`
> 50 µM

====

Measured IC50 values are reported for all entries that follow.
System: A/Vietnam/1194/04 (H5N1)
protocol: microbe, parasite or virus in culture
Format: cell-based, influenza A virus
reported_conditions: read-out: IC50 H5N1
Express the result in nM but write the number alone.

Examples with answers:
compound	IC50 [nM]
CCCCCCCCCC(=O)Oc1ccc(COP(=O)(OCc2ccc(OC(=O)CCCCCCCCC)cc2)OP(=O)(O)OC[C@H]2O[C@@H](n3ccnc(C(N)=O)c3=O)[C@H](O)[C@@H]2O)cc1 [3a]	224
NC(=O)c1nc(F)c[nH]c1=O [1a, T-705]	1140
CCCCCCCCCCCCCCC(=O)Oc1ccc(COP(=O)(OCc2ccc(OC(=O)CCCC)cc2)OP(=O)(O)OC[C@H]2O[C@@H](n3ccnc(C(N)=O)c3=O)[C@H](O)[C@@H]2O)cc1 (stereo partly shown) [3b]	116

Turning now to a further record.
Provide IC50 value for the following compound: CCCCCCCCCC(=O)Oc1ccc(COP(=O)(OCc2ccc(OC(=O)CCCCCCCCC)cc2)OP(=O)(O)OP(=O)(O)OC[C@H]2O[C@@H](n3ccnc(C(N)=O)c3=O)[C@H](O)[C@@H]2O)cc1 [4a, T-1106-C9C9-TriPPPro]
314

====

System: A/Vietnam/1194/04 (H5N1)
protocol: microbe, parasite or virus in culture
Format: cell-based, influenza A virus
reported_conditions: Influenza A virus, H5N1, MDCK-II, read-out: IC50, H5N1, as used for combination treatment
experimental_readout: pIC50
Please note pIC50 is a logarithmic value: minus log10 of concentration in mol/L. Answer with that number alone.

Indicate the recorded pIC50 value for this compound: `CCCCCCCCCC(=O)Oc1ccc(COP(=O)(OCc2ccc(OC(=O)CCCCCCCCC)cc2)OP(=O)(O)OC[C@H]2O[C@@H](n3ccnc(C(N)=O)c3=O)[C@H](O)[C@@H]2O)cc1`
6.57
